Reference source for all entries: ChEMBL document CHEMBL1777746

assay: Intrinsic clearance in human liver microsomes; type: ADME, Microsome
measured-parameter: microsomal CLint (µL/min/mg)

Solved cases below.
structure-notation: COC[C@H]1C[C@@H](C(=O)NCC2CCOCC2)CN(Cc2nc(-c3ccncn3)[nH]c2C)C1
microsomal CLint / µL/min/mg: 19.9
--
structure-notation: Cc1cccc(CNC(=O)[C@H]2C[C@H](c3nnc(C)o3)CN(Cc3nc(-c4ccccc4)oc3C)C2)n1
microsomal CLint / µL/min/mg: 290
--
structure-notation: COC[C@@H]1C[C@@H](C(=O)NCC2CCOCC2)CN(Cc2nc(N3CCOCC3)oc2C)C1
microsomal CLint / µL/min/mg: 31.7
--
structure-notation: COC[C@H]1C[C@@H](C(=O)NCC2CCOCC2)CN(Cc2nc(N3CCOCC3)oc2C)C1
microsomal CLint / µL/min/mg: 19.3
--
structure-notation: CC[C@H]1C[C@@H](C(=O)NCC2CCOCC2)CN(Cc2nc(N3CCOCC3)oc2C)C1
microsomal CLint / µL/min/mg: 40.6
--
structure-notation: Cc1oc(-c2ccccc2)nc1CN1CCC[C@@H](C(=O)NC[C@@H]2CCCO2)C1
microsomal CLint / µL/min/mg: 69.1
--
structure-notation: Cc1cccc(CNC(=O)[C@@H]2C[C@@H](c3nc(C)no3)CN(Cc3nc(-c4ccccc4)oc3C)C2)n1
microsomal CLint / µL/min/mg: 105
--
structure-notation: CC[C@@H]1C[C@@H](C(=O)NC[C@@H]2CCCO2)CN(Cc2[nH]c(-c3ccncn3)nc2C)C1
microsomal CLint / µL/min/mg: 195

[A] CC[C@H]1C[C@@H](C(=O)NC[C@@H]2CCCO2)CN(Cc2nc(N3CCOCC3)oc2C)C1
[B] CC[C@@H]1C[C@@H](C(=O)NCC2CCOCC2)CN(Cc2nc(-c3ccccc3)oc2C)C1
Lower value for measured microsomal CLint? Options: A , B Response format: the label of the selected entry.
A

[I] COC[C@H]1C[C@@H](C(=O)NC[C@H]2CCCO2)CN(Cc2nc(-c3ccccc3)oc2C)C1
[II] CC[C@@H]1C[C@@H](C(=O)NCc2cccc(N)n2)CN(Cc2nc(N3CCOCC3)oc2C)C1
Lab note: check whether I or II shows the higher recorded microsomal CLint. Response format: the label of the selected entry.
II

[a] CC[C@@H]1C[C@@H](C(=O)NC[C@@H]2CCCO2)CN(Cc2nc(-c3ccccc3)oc2C)C1
[b] CC[C@H]1C[C@@H](C(=O)NCc2cccc(C)n2)CN(Cc2nc(-c3ccccc3)oc2C)C1
Lab note: check whether a or b shows the higher recorded microsomal CLint. Response format: the label of the selected entry.
a
(a: 320 µL/min/mg, b: 118 µL/min/mg)

* * *

experiment: Dissociation constant, pKa of the compound; format: physicochemical
measured-parameter: pKa
Provide a numeric answer; units are not to be included.

For COCC1CC(C(=O)NC[C@H]2CCCO2)CN(Cc2nc(N3CCOCC3)oc2C)C1 (stereo partly specified) , what is its reported pKa?
7.2

* * *

assay: Intrinsic clearance in human liver microsomes; type: ADME, Microsome
measured-parameter: microsomal CLint (µL/min/mg)

molecule: Cc1cccc(CNC(=O)C2CCCN(Cc3nc(-c4ccccc4)oc3C)C2)n1 (stereo unspecified)
microsomal CLint / µL/min/mg: 158

[P] Cc1oc(-c2ccccc2)nc1CN1CCC[C@@H](C(=O)NC[C@H]2CCCO2)C1
[Q] CC[C@H]1C[C@@H](C(=O)NC[C@H]2CCCO2)CN(Cc2nc(-c3ccccc3)oc2C)C1
[R] COC[C@@H]1C[C@@H](C(=O)NCC2CCOCC2)CN(Cc2nc(-c3ccccc3)oc2C)C1
[S] CC[C@H]1C[C@@H](C(=O)NCc2cccc(N)n2)CN(Cc2nc(N3CCOCC3)oc2C)C1
Write the entries in order, lowest recorded microsomal CLint first. Give the labels in the order specified.
S, P, Q, R
(S: 31.4 µL/min/mg, P: 84 µL/min/mg, Q: 120 µL/min/mg, R: 239 µL/min/mg)
